assay: qHTS assay to identify small molecule antagonists of the retinoid-related orphan receptor gamma (ROR-gamma) signaling pathway - cell viability counter screen (AID 1159520); conditions: Tet-on RORgamma CHO cells viability, ATP luminescence, 16 h; series mostly up to 92.4 µM; note: % is set by controls: 0 for no effect and ±100 for the full control effect; nearly all actives have a fitted effect of over 50% in size
Results filed as inconclusive are left out. The source made the active and inactive calls. Calls come from the whole dose curve; as a rule, active = well fitted cell-killing curve with a large enough effect in the repeat runs; inconclusive = weak or mixed curves, or effect the other way; inactive = no such curve, though single readings can be large or run the other way.

{"columns": ["Molecule", "outcome"],
 "data": [
  ["CC(C)CCCCCCOC(=O)c1ccccc1C(=O)OCCCCCCC(C)C", "inactive"],
  ["C=CC#N", "inactive"],
  ["Nc1ccc([As](=O)(O)O)cc1", "inactive"],
  ["O=C/C=C/c1ccccc1", "inactive"],
  ["COP(=S)(OC)Oc1ccc(SC)c(C)c1", "inactive"],
  ["O=C(O)COc1ccccc1", "inactive"],
  ["COS(=O)(=O)OC", "inactive"],
  ["O=P1(NCCCl)OCCCN1CCCl (configuration not stated)", "inactive"],
  ["O=C(O)c1cc(Oc2ccc(C(F)(F)F)cc2Cl)ccc1[N+](=O)[O-]", "inactive"],
  ["NNc1ccccc1", "inactive"],
  ["C=CC(=O)OCC(CC)CCCC (configuration not stated)", "inactive"],
  ["CNC(=O)O/N=C/C(C)(C)SC", "inactive"]
]}

---

test: qHTS assay to identify small molecule antagonists of the androgen receptor (AR) signaling pathway using the MDA cell line in the presence of 0.5 nM R1881 - cell viability counter screen (AID 1259242); details: MDA-kb2 viability, CellTiter-Fluor protease fluorescence, 16 h; series mostly up to 92.4 µM; note: % is set by controls: 0 for no effect and ±100 for the full control effect; nearly all actives have a fitted effect of over 45% in size
Results filed as inconclusive are left out. The source made the active and inactive calls. Calls come from the whole dose curve; as a rule, active = well fitted cell-killing curve with a large enough effect in the repeat runs; inconclusive = weak or mixed curves, or effect the other way; inactive = flat fitted curve, though single readings scatter.
Measurement Label: outcome

{"columns": ["Compound", "Measurement Label", "Result"],
 "data": [
  ["CN(C)CCC#N", "outcome", "inactive"],
  ["N#CN=C(N)N", "outcome", "inactive"],
  ["CCNc1nc(Cl)nc(NC(C)C)n1", "outcome", "inactive"],
  ["Cl[C@H]1OCCO[C@@H]1Cl", "outcome", "inactive"],
  ["COC(=O)Nc1cccc(OC(=O)Nc2cccc(C)c2)c1", "outcome", "inactive"],
  ["Cc1cccc(C)c1NC(=O)CN1CCCC1=O", "outcome", "inactive"],
  ["CNC(=O)O/N=C(\\SC)C(=O)N(C)C", "outcome", "inactive"],
  ["CNC(=O)O/N=C/C(C)(C)SC", "outcome", "inactive"],
  ["Nc1cccc(Cl)c1", "outcome", "inactive"],
  ["Cl/C=C/Cl", "outcome", "inactive"],
  ["Nc1ccc([As](=O)(O)O)cc1", "outcome", "inactive"],
  ["[N-]=[N+]=CC(=O)OC[C@H](N)C(=O)O", "outcome", "inactive"],
  ["COP(=S)(OC)Oc1ccc(SC)c(C)c1", "outcome", "inactive"],
  ["O=[N+]([O-])c1cc([As](=O)(O)O)ccc1O", "outcome", "inactive"],
  ["ClCCOCCCl", "outcome", "inactive"],
  ["O=P1(NCCCl)OCCCN1CCCl (stereo not given)", "outcome", "inactive"],
  ["CNCC(O)c1ccc(O)cc1 (stereo not given)", "outcome", "inactive"],
  ["OCc1ccco1", "outcome", "inactive"],
  ["Cc1cccc(C)c1N", "outcome", "inactive"],
  ["Nc1ncc([N+](=O)[O-])s1", "outcome", "inactive"],
  ["CC(C)c1cccc(C(C)C)c1O", "outcome", "inactive"],
  ["FC(F)(F)c1ccc(Cl)cc1", "outcome", "inactive"],
  ["CNC(=O)O/N=C/C(C)(C)S(C)(=O)=O", "outcome", "inactive"],
  ["CSc1nnc(C(C)(C)C)c(=O)n1N", "outcome", "inactive"],
  ["CN1C(=O)CCS(=O)(=O)C1c1ccc(Cl)cc1 (stereo not given)", "outcome", "inactive"],
  ["O=[N+]([O-])c1ccc(Cl)c(Cl)c1", "outcome", "inactive"],
  ["Cc1cc(O)ccc1Cl", "outcome", "inactive"],
  ["O=C(O)c1cc(Oc2ccc(C(F)(F)F)cc2Cl)ccc1[N+](=O)[O-]", "outcome", "inactive"],
  ["N#Cc1ccccn1", "outcome", "inactive"],
  ["O=C(O)C1C(C(=O)O)C2(Cl)C(Cl)=C(Cl)C1(Cl)C2(Cl)Cl (stereo not given)", "outcome", "inactive"],
  ["CCCOC(=O)c1ccccc1C(=O)OCCC", "outcome", "inactive"],
  ["O=S(=O)(O)OOS(=O)(=O)O", "outcome", "inactive"],
  ["N#Cc1cccc(C#N)c1", "outcome", "inactive"],
  ["ClC(Cl)c1ccccc1", "outcome", "inactive"],
  ["CCOC(=O)CC(SP(=O)(OC)OC)C(=O)OCC (stereo not given)", "outcome", "inactive"],
  ["Cc1cccc(N)c1C", "outcome", "inactive"],
  ["Nc1ccc(N)cc1", "outcome", "inactive"],
  ["Cc1cc(Cl)ccc1OC(C)C(=O)O (stereo not given)", "outcome", "inactive"],
  ["Oc1c(Br)cc(Br)cc1Br", "outcome", "inactive"],
  ["C[C@H]1C(=O)O[C@@H]2CCN3CC=C(COC(=O)[C@](C)(O)[C@]1(C)O)[C@H]23", "outcome", "inactive"]
]}

---

assay: qHTS RealTime-Glo MT Cell Viability Assay in HEK293 cells - 40 hour (AID 1224874); conditions: RealTime-Glo luminescence; active compounds read low; note: % is set by controls: 0 for no effect and ±100 for the full control effect; nearly all actives have a fitted effect of over 50% in size
Results filed as inconclusive are left out. Calls of active or inactive are those of the source. The call rests on the fitted dose curve; in most records, active means well fitted cell-killing curve with a large enough effect in the repeat runs; inconclusive means weak or mixed curves, or effect the other way; inactive means flat fitted curve, though single readings scatter.

{"columns": ["Compound", "max response"],
 "data": [
  ["C[C@]12CC[C@H](O)CC1=CC[C@@H]1[C@@H]2CC[C@]2(C)C(=O)CC[C@@H]12", "-15.5% (inactive)"],
  ["Oc1c(Br)cc(Br)cc1Br", "-1.22% (inactive)"],
  ["C=C(C)C(=O)OCC(CC)CCCC (stereo not given)", "1.51% (inactive)"],
  ["C=CC(=O)OCC(CC)CCCC (stereo not given)", "13.3% (inactive)"],
  ["O=C(O)c1cc(Oc2ccc(C(F)(F)F)cc2Cl)ccc1[N+](=O)[O-]", "3.72% (inactive) [middle of 4 runs]"]
]}

---

assay: qHTS assay to identify small molecule agonists of the androgen receptor (AR) signaling pathway in the presence of an antagonist - cell viability counter screen (AID 1259379); details: MDA-kb2 viability, CellTiter-Fluor, 16 h; series mostly up to 92.4 µM;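 note: MDA-kb2 human breast cancer cells carrying an MMTV luciferase reporter; % is set by controls: 0 for no effect and ±100 for the full control effect; nearly all actives have a fitted effect of over 25% in size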
Results filed as inconclusive are left out. Active and inactive are the calls of the source. Calls come from the whole dose curve; as a rule, active = well fitted cell-killing curve with a large enough effect in the repeat runs; inconclusive = weak or mixed curves, or effect the other way; inactive = flat fitted curve, though single readings scatter.
Measurement Label: outcome

{"columns": ["Compound Smiles", "Measurement Label", "Result"],
 "data": [
  ["N#Cc1ccccn1", "outcome", "inactive"],
  ["c1ccc2c(c1)CCCC2", "outcome", "inactive"],
  ["COP(=S)(OC)SCN1C(=O)c2ccccc2C1=O", "outcome", "inactive"],
  ["Sc1ccccc1", "outcome", "inactive"],
  ["Nc1cccc(Cl)c1", "outcome", "inactive"],
  ["CC(=O)/C=C/c1ccccc1", "outcome", "inactive"],
  ["Nc1nc(N)nc(NC2CC2)n1", "outcome", "inactive"],
  ["COC(=O)Nc1cccc(OC(=O)Nc2cccc(C)c2)c1", "outcome", "inactive"]
]}

---

experiment: qHTS assay to identify small molecule antagonists of the sonic hedgehog signaling (Shh) pathway (AID 1259369); conditions: NIH/3T3 Gli1-Luc reporter, Shh antagonist, luminescence 24 h; series mostly up to 92.4 µM; note: nearly all actives have a fitted effect of over 45% in size
Inconclusive results are not listed. Activity calls are given as the source filed them. Calls follow the shape of the full dose curve.
Outcome codes: TRUE (active), FALSE (inactive)

{"columns": ["Molecule", "Class"],
 "data": [
  ["Clc1cnc(Oc2ccc(Oc3ncc(Cl)cc3Cl)cc2)c(Cl)c1", "FALSE"],
  ["N#CN=C(N)N", "FALSE"],
  ["NNc1ccccc1", "FALSE"],
  ["ClC(Cl)c1ccccc1", "FALSE"],
  ["CN(C)C(=O)Cl", "FALSE"],
  ["C=CC#N", "FALSE"],
  ["Cc1ccc(N)cc1", "FALSE"],
  ["O=C(O)C(Br)Br", "FALSE"],
  ["COC(=O)Nc1cccc(OC(=O)Nc2cccc(C)c2)c1", "FALSE"],
  ["Nc1cccc(Cl)c1", "FALSE"],
  ["CNCC(O)c1ccc(O)cc1 (centres undefined)", "FALSE"],
  ["C/C=C/c1ccc2c(c1)OCO2", "FALSE"],
  ["CNC(=O)O/N=C/C(C)(C)SC", "FALSE"],
  ["Cl[C@H]1OCCO[C@@H]1Cl", "FALSE"],
  ["Cc1ccc(O)c(C)c1", "FALSE"],
  ["CN(C)C(=O)C(c1ccccc1)c1ccccc1", "FALSE"],
  ["O=C(O)Cc1ccccc1", "FALSE"],
  ["O=C/C=C/c1ccccc1", "FALSE"],
  ["CCOP(=S)(OCC)Oc1cc(C)nc(C(C)C)n1", "FALSE"],
  ["Nc1nc(N)nc(NC2CC2)n1", "FALSE"],
  ["CN(C)CCC#N", "FALSE"],
  ["Cc1cccc(N)c1C", "FALSE"],
  ["C=C(C)C(=O)OCC(CC)CCCC (centres undefined)", "FALSE"],
  ["CCOC(=O)CC(SP(=O)(OC)OC)C(=O)OCC (centres undefined)", "FALSE"],
  ["O=C(O)COc1ccccc1", "FALSE"],
  ["CC(=O)C1CCOC1=O (centres undefined)", "FALSE"],
  ["COP(=S)(OC)SCN1C(=O)c2ccccc2C1=O", "TRUE"],
  ["O=C(O)c1cc(Oc2ccc(C(F)(F)F)cc2Cl)ccc1[N+](=O)[O-]", "FALSE"],
  ["Sc1ccccc1", "FALSE"],
  ["CC[N+](=O)[O-]", "FALSE"],
  ["C=CCN=C=S", "FALSE"],
  ["COP(=S)(OC)Oc1ccc(SC)c(C)c1", "FALSE"],
  ["CNC(=O)O/N=C(\\SC)C(=O)N(C)C", "FALSE"],
  ["O=C(O)CCCc1ccc(N(CCCl)CCCl)cc1", "FALSE"]
]}

These measurements were taken from PubChem BioAssay (Tox21).
